Each recorded value in this set is attributed to patent US11572366B2.

# EXPERIMENTAL SYSTEM: PD-1/PD-L1 protein/protein interaction (Homo sapiens (Human), UniProt Q9NZQ7)
# Sequence (Q9NZQ7 19-238): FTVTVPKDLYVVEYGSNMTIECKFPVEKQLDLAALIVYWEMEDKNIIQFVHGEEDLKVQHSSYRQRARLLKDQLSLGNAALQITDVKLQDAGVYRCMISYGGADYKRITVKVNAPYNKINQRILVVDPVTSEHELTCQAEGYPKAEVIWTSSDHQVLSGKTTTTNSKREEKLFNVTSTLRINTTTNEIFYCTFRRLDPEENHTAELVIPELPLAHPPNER
# ASSAY NOTES: PD-1/PD-L1 Homogeneous Time-Resolved Fluorescence (HTRF) binding assay
# APPLIED CONDITIONS: recombinant human PD-L1 (19-238) His-tag 10 nM, human PD-1 (25-167) Fc tag 3 nM, 25° C., PBS pH 7.4
pIC50: −log10 of the molar value.
Kindly state pIC50 for each of the entries shown.

These solved cases illustrate the format of a correct answer.
> print(dat)
                            molecule.smiles                       experimental.system  measured.attribute  result.value
1  Cc1c(-c2ccccc2)cccc1-c1nc2ccc(CN3CCCC[C@H]3C(=O)O)cc2o1  PD-1/PD-L1 protein/protein interaction (Homo sapiens (Human), UniProt Q9NZQ7)               pIC50  7.00 to 8.00
2  Cc1c(-c2ccccc2)cccc1-c1cc2nc(CNCCO)ccc2o1  PD-1/PD-L1 protein/protein interaction (Homo sapiens (Human), UniProt Q9NZQ7)               pIC50  7.00 to 8.00

# return pIC50 for each item in the list
1. Cc1c(-c2nc3cc(CNCCO)c(OCC#N)cc3o2)cccc1-c1ccccc1F
2. Cc1c(-c2ccccc2)cccc1-c1cc2nc(CNCCO)cc(C)c2o1
3. Cc1c(-c2ccccc2)cccc1-c1cc2ccc(CNCCO)nc2o1

-- reply
1: ≥ 8.00; 2: 7.00 to 8.00; 3: 7.00 to 8.00

# return pIC50 for each item in the list
1. Cc1c(-c2ccccc2)cccc1-c1nc2cc(CNCCO)c(OCC#N)cc2o1
2. Cc1c(-c2ccccc2)cccc1-c1nc2cc(CNCCO)c(OCCCC#N)c(C)c2o1

-- reply
≥ 8.00
7.00 to 8.00

# return pIC50 for each item in the list
1. Cc1c(-c2ccccc2)cccc1-c1nc2cc(CN3CCCC[C@H]3C(=O)O)ccc2o1
2. Cc1c(-c2ccccc2)cccc1-c1nc2cc(CN3CCCC[C@H]3C(=O)O)ccc2s1
3. Cc1c(-c2ccccc2)cccc1-c1nc2cc(CNCCO)c(OCc3ccccn3)cc2o1
4. Cc1c(-c2ccccc2)cccc1-c1nc2c(C)cc(CN3CCCC[C@H]3C(=O)O)cc2s1
5. Cc1c(-c2ccc3c(c2)OCCO3)ccnc1-c1nc2cc(CN3CCCC[C@H]3C(=O)O)c(OCC#N)cc2o1
6. Cc1c(-c2ccccc2)cccc1-c1nc2cc(CNCCO)ncc2o1
7. Cc1c(-c2ccccc2)cccc1-c1nc2cc(CN3CCCC[C@H]3C(=O)O)c(OCCCC#N)cc2o1

-- reply
7.00 to 8.00
6.00 to 7.00
≥ 8.00
7.00 to 8.00
7.00 to 8.00
7.00 to 8.00
≥ 8.00

# return pIC50 for each item in the list
1. Cc1c(-c2ccccc2)cccc1-c1nc2c(C)cc(CNCCO)cc2s1
2. Cc1cc(CN2CCCC[C@H]2C(=O)O)cc2nc(-c3cccc(-c4ccccc4)c3C#N)oc12

-- reply
["7.00 to 8.00", "7.00 to 8.00"]

# return pIC50 for each item in the list
1. Cc1c(-c2ccccc2)cccc1-c1cc2ccc(CN3CCCC[C@H]3C(=O)O)nc2o1
2. Cc1c(-c2ccccc2)cccc1-c1nc2cc(CNCCO)cc(C)c2o1
3. Cc1c(-c2ccccc2)cccc1-c1cc2nc(CN3CCCC[C@H]3C(=O)O)ccc2o1
4. Cc1c(-c2ccc3c(c2)OCCO3)cccc1-c1nc2cc(CNCCO)cc(C)c2o1
5. Cc1cc(CN2CCCC[C@H]2C(=O)O)cc2nc(-c3cccc(-c4ccc5c(c4)OCCO5)c3C#N)oc12
6. Cc1c(-c2ccc3c(c2)OCCO3)cccc1-c1nc2cc(CN3CCCC[C@H]3C(=O)O)c(OCC#N)cc2o1

-- reply
1: 6.00 to 7.00; 2: ≥ 8.00; 3: 6.00 to 7.00; 4: ≥ 8.00; 5: 7.00 to 8.00; 6: ≥ 8.00

# return pIC50 for each item in the list
1. Cc1c(-c2ccccc2)cccc1-c1nc2cc(CN3CCCC[C@H]3C(=O)O)cc(C)c2o1
2. Cc1c(-c2ccccc2)cccc1-c1nc2cc(CNCCO)c(OCCN3CCOCC3)cc2o1
3. N#CCOc1cc2oc(-c3cccc(-c4ccc5c(c4)OCCO5)c3C#N)nc2cc1CN1CCCC[C@H]1C(=O)O
4. Cc1c(-c2ccccc2)cccc1-c1cc2cc(CN3CCCC[C@H]3C(=O)O)nc(C)c2o1

-- reply
1: ≥ 8.00; 2: ≥ 8.00; 3: 7.00 to 8.00; 4: 7.00 to 8.00

# return pIC50 for each item in the list
1. Cc1c(-c2ccc3c(c2)OCCO3)cccc1-c1nc2cc(CN3CCCC[C@H]3C(=O)O)cc(C)c2o1
2. Cc1c(-c2ccccc2)cccc1-c1cc2cc(CNCCO)nc(C)c2o1

-- reply
1: 7.00 to 8.00; 2: 7.00 to 8.00

# return pIC50 for each item in the list
1. Cc1c(-c2ccccc2)cccc1-c1nc2cc(CNCCO)ccc2o1
2. Cc1c(-c2ccccc2)cccc1-c1cc2cc(CN3CCCC[C@H]3C(=O)O)cnc2o1
3. Cc1c(-c2ccccc2)cccc1-c1nc2cc(CNCCO)c(OCc3cccc(C#N)c3)cc2o1
4. Cc1c(-c2ccccc2)cccc1-c1cc2cc(CNCCO)cnc2o1
5. Cc1c(-c2ccccc2)cccc1-c1cc2nc(CNCCO)cnc2o1

-- reply
≥ 8.00
6.00 to 7.00
7.00 to 8.00
7.00 to 8.00
7.00 to 8.00
